Target: hCereblon(M1-L442)_hDDB1(M1-H1140) (Homo sapiens (Human))
Assay: Fluorescence direct binding (tryptophan fluorescence titration)
Conditions: 20° C., excitation 280 nm, emission 340 nm, 50 mM Hepes 7.4 200 mM NaCl; read-out: Fluorescence h-Cereblon_DDB1 Mean Kd_EQ
So I've got a bunch of molecules here, and I need their Kd values.
Value expressed in nM; do not type the unit.

O=C1CCC2(CCN(C(=O)c3ccc4ncoc4c3)C2)C(=O)N1 (stereo not shown) [Example 46] has a reported Kd of 10

The reported value for CN1CC2(CCC(=O)NC2=O)CC1=O (stereo not shown) [Example 2] in terms of Kd is 159

According to the records, this molecule O=C1NC(=O)C2(CCN(C(=O)c3coc4ccccc34)CC2)N1 [Example 66] displays Kd of 1

Notebook: COC(=O)c1cnc(N2CCC3(CCC(=O)NC3=O)C2)s1 (stereo not shown) [Example 23] , Kd read as 8

Entry under test: CC(=O)Nc1nc2cc(C(=O)N3CCC4(CCC(=O)NC4=O)C3)ccc2s1 (stereo not shown) [Example 50] . Its Kd was 45

# Kd of O=C1NC(=O)C2(CCN(c3nc4ccccc4s3)CC2)N1 [Example 61] = 2

GET /value?item= O=C1NC(=O)C2(CCN(C(=O)[C@H]3CCCc4ccccc43)CC2)N1 [Example 58] &field=Kd returns 4

Quick note, Kd for O=C1CCC2(CCN(c3ccc([N+](=O)[O-])cn3)C2)C(=O)N1 (stereo not shown) [Example 30] landed at 1

Short answer for O=C1CC2(CCN(C(=O)[C@@H]3CCCc4ccccc43)CC2)C(=O)N1 (single isomer, unassigned) [Example 78] : Kd was 4

// Kd lookup, molecule = Cn1c(N2CCC3(CCC(=O)NC3=O)C2)nc2ccccc21 (stereo not shown) [Example 19] , result: 30

Briefly, Kd measured for O=C1CCC2(CCN(c3nc4ccccc4s3)C2)C(=O)N1 (stereo not shown) [Example 12] : 1

Record CC(=O)Nc1nc2ccc(C(=O)N3CCC4(CCC(=O)NC4=O)C3)cc2s1 (stereo not shown) [Example 51] , field Kd: 94

Kd reported for this molecule O=C1CCC2(CCN(C(=O)c3coc4ccccc34)C2)C(=O)N1 (stereo not shown) [Example 44] : 9

Recorded Kd (molecule COC(=O)c1ccc2nc(N3CCC4(CCC(=O)NC4=O)C3)sc2c1 (stereo not shown) [Example 21] ): 8

Just so you know, measured Kd for O=C1NC(=O)C2(CCN(C(=O)c3ccc4scnc4c3)CC2)N1 [Example 81] came out at 6

====

Target: hCereblon(M1-L442)_hDDB1(M1-H1140) (Homo sapiens (Human), UniProt Q96SW2)
Sequence (Q96SW2 whole entry, looked up): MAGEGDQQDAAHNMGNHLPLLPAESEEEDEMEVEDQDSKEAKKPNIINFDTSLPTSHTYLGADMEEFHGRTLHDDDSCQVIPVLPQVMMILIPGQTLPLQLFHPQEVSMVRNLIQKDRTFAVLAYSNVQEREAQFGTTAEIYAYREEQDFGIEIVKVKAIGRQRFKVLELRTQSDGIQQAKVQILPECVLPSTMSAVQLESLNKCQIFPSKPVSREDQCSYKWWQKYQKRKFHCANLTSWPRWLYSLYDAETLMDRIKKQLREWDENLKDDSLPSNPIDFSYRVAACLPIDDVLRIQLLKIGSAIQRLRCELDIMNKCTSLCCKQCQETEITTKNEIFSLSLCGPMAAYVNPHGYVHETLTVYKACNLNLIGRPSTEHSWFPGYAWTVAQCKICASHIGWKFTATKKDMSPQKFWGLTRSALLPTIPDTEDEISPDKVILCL
Sequence (Q16531 whole entry partner, looked up): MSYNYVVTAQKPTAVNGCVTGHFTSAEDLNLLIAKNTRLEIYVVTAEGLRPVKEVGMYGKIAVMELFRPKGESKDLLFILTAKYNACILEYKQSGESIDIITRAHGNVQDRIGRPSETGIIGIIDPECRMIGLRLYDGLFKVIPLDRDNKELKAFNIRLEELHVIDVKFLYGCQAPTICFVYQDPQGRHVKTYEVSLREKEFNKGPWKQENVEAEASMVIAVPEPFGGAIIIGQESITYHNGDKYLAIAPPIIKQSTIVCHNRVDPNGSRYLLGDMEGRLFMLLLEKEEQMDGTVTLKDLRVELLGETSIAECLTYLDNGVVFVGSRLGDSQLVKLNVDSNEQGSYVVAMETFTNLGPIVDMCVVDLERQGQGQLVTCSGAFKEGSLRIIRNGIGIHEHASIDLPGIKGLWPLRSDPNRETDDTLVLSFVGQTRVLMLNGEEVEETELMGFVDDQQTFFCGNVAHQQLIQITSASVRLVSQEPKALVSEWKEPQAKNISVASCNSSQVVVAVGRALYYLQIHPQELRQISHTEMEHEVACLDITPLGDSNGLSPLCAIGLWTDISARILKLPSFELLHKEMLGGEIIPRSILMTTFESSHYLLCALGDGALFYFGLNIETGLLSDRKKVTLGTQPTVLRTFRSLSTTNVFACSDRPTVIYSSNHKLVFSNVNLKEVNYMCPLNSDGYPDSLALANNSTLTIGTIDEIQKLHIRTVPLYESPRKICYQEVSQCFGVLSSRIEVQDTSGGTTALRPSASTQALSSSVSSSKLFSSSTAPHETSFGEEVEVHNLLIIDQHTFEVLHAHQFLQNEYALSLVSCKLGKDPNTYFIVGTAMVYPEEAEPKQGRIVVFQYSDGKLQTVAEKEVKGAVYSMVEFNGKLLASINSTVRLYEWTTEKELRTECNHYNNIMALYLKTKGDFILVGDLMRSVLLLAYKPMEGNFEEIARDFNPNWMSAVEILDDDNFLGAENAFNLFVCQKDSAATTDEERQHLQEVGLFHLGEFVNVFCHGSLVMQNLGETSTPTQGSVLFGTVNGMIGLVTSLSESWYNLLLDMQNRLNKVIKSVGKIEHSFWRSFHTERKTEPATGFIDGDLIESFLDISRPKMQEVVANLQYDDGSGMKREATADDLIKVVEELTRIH
Parameter: Kd (nM)
Entry rule: numbers only, all in nM.

Reported Kd of COC(=O)c1cccc(N2CCC3(CCC(=O)NC3=O)C2)n1 (stereo not drawn) : 1

O=C1CCC2(CCN(c3nc4cc([N+](=O)[O-])ccc4[nH]3)C2)C(=O)N1 (single isomer, unassigned) [Example 34] has a reported Kd of 5

Entry O=C1CC2(CCN(c3nc4ccccc4s3)CC2)C(=O)N1 , Kd reported as 2

Kd in this record for Cc1sc2c(c1C)C(c1ccc(Cl)cc1)=NC(CC(=O)NCCCCCCCC(=O)Nc1cccc(C(=O)N3CCC4(CCC(=O)NC4=O)C3)c1)c1nnc(C)n1-2 (stereo in doubt) : 106

Short answer for O=C1CCC2(CCN(c3ccc4ccccc4n3)C2)C(=O)N1 (stereo not drawn) : Kd was 6

====

Hi there, I'd appreciate the recorded Kd for every entry that follows.
Kindly provide the numeric value in nM only, without the unit symbol.

Simply: O=C1CCC2(CCNC2)C(=O)N1 (stereo not shown) [Example 1, 2,7-diazaspiro [4.5]decane-6,8-dione] , hCereblon(M1-L442)_hDDB1(M1-H1140) (Homo sapiens (Human), UniProt Q96SW2), Kd = 84

Reading of Kd for CC(=O)Nc1cccc(C(=O)N2CCC3(CCC(=O)NC3=O)C2)c1 (stereo not shown) [Example 37] with hCereblon(M1-L442)_hDDB1(M1-H1140) (Homo sapiens (Human), UniProt Q96SW2): 6

O=C1CCC2(CCN(c3nc4cc([N+](=O)[O-])ccc4[nH]3)C2)C(=O)N1 (stereo not shown) [Example 9] tested on hCereblon(M1-L442)_hDDB1(M1-H1140) (Homo sapiens (Human), UniProt Q96SW2) gave Kd: 8
